protocol: qHTS assay to identify small molecule agonists of H2AX - cell viability counter screen (AID 1224847);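 note: wild-type CHO-K1 cells; top concentration of the series differs between compounds; % is set by controls: 0 for no effect and ±100 for the full control effect; nearly all actives have a fitted effect of over 30% in size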
run.conditions: CHO-K1 viability, CellTiter-Glo luminescence, 3 h; series mostly up to 154 µM
Records with an inconclusive call do not appear. Activity calls are given as the source filed them. Calls come from the whole dose curve.
Please reply with one of these outcomes: y for active, n for inactive

[
  {
    "compound": "CC(C)O.CC(C)O.CCOC(=O)/C=C(\\C)O.CCOC(=O)/C=C(\\C)O.[Ti]",
    "answer.label": "n"
  }
]

Please examine the following record next.
Give the logged outcome of this assay for the following compound: `CCCCCCCC/C=C\CCCCCCCC(=O)OCC` n

----------
assay.target: Thyrotropin receptor (Homo sapiens)
protocol: qHTS assay to identify small molecule antagonists of the thyroid stimulating hormone receptor (TSHR) signaling pathway (AID 1259385); note: % is set by controls: 0 for no effect and ±100 for the full control effect; nearly all actives have a fitted effect of over 20% in size
run.conditions: TSHR-HEK293 cAMP HTRF, TSH-stimulated antagonist mode; series mostly up to 92.4 µM
Inconclusive results are not listed. The source made the active and inactive calls. Calls follow the shape of the full dose curve.
The following molecules are shown together with reported activity change, negative = inhibition values.

[
  {
    "molecule": "CN(C)c1ccc(/C=C/c2ccc([N+](=O)[O-])cc2)cc1",
    "assay.target": "Thyrotropin receptor (Homo sapiens)",
    "activity change, negative = inhibition": "-4.14% [at 8.39 µM] (inactive)"
  },
  {
    "molecule": "CC(CSC(=O)c1ccccc1)C(=O)N1C[C@@H](Sc2ccccc2)C[C@H]1C(=O)O (some centres undefined)",
    "assay.target": "Thyrotropin receptor (Homo sapiens)",
    "activity change, negative = inhibition": "-6.99% [at 19 µM] (inactive)"
  },
  {
    "molecule": "Brc1c2ccccc2c(Br)c2ccccc12",
    "assay.target": "Thyrotropin receptor (Homo sapiens)",
    "activity change, negative = inhibition": "-6.18% [at 8.39 µM] (inactive)"
  }
]

We next turn to a different molecule, shown below.
Value lookup for activity change, negative = inhibition; key = `O=C(O)CNCC(=O)O` -1.17% [at 8.39 µM] (inactive)

----------
protocol: qHTS assay to identify small molecule agonists of the progesterone receptor (PR) signaling pathway - cell viability counter screen (AID 1346799); note: % is set by controls: 0 for no effect and ±100 for the full control effect; nearly all actives have a fitted effect of over 45% in size
run.conditions: PR-UAS-bla HEK293T viability, CellTiter-Glo luminescence, 16 h; series mostly up to 92.4 µM
Inconclusive results are not listed. Active and inactive are the calls of the source. Calls come from the whole dose curve.
measure: Potency

[
  {
    "molecule": "COc1cc(Cl)ccc1Oc1ccc(Cl)cc1Cl",
    "Potency": "inactive"
  },
  {
    "molecule": "c1ccc(CNCCNCc2ccccc2)cc1",
    "Potency": "inactive"
  },
  {
    "molecule": "O=C1[C@H]2CCCC[C@H]2C(=O)N1CCCCN1CCN(c2nsc3ccccc23)CC1",
    "Potency": "inactive"
  },
  {
    "molecule": "Cc1ccc(C(C)OC(=O)C2(C)CCC(C(=O)O)C2(C)C)cc1 (configuration not stated)",
    "Potency": "inactive"
  },
  {
    "molecule": "O=C1c2ccccc2S(=O)(=O)N1CCCCN1CCN(c2ncccn2)CC1",
    "Potency": "inactive"
  },
  {
    "molecule": "Cc1ccc(C(=O)Oc2ccc(C(O)CNC(C)(C)C)cc2OC(=O)c2ccc(C)cc2)cc1 (configuration not stated)",
    "Potency": "inactive"
  }
]

Value lookup for Potency; key = `NS(=O)(=O)c1ccc(N2CCCCS2(=O)=O)cc1` inactive

Next molecule up: O=C1OC(CN2CCOCC2)CN1/N=C/c1ccc([N+](=O)[O-])o1 (configuration not stated) inactive

----------
protocol: qHTS assay to identify small molecule antagonists of the androgen receptor (AR) signaling pathway using the MDA cell line - cell viability counter screen (AID 743041; note: nearly all actives have a fitted effect of over 45% in size)
run.conditions: MDA-kb2 viability, CellTiter-Fluor, 16 h, cells co-treated with R1881 androgen agonist; series mostly up to 70.3 µM
Results filed as inconclusive are left out. Active and inactive are the calls of the source. Calls follow the shape of the dose curve; as a rule, active = well fitted cell-killing curve with a large enough effect in the repeat runs; inconclusive = weak or mixed curves, or effect the other way; inactive = flat fitted curve, though single readings scatter.
Please reply with one of these outcomes: Yes (active), No (inactive)

Some entries whose results are on file:
[
  {
    "molecule": "CCC(=O)O[C@]1(C(=O)CCl)[C@@H](C)C[C@H]2[C@@H]3CCC4=CC(=O)C=C[C@]4(C)[C@@]3(F)[C@@H](O)C[C@@]21C",
    "answer.label": "No"
  },
  {
    "molecule": "COc1ccc(C(=O)Nc2nc3ccccc3c(NCc3ccccc3)c2C#N)cc1",
    "answer.label": "No"
  },
  {
    "molecule": "CCCCC(=O)OCC(=O)[C@H]1[C@H](C)C[C@H]2[C@@H]3C[C@H](F)C4=CC(=O)C=C[C@]4(C)[C@@]3(F)[C@@H](O)C[C@@]21C",
    "answer.label": "No"
  },
  {
    "molecule": "CCNc1cc(O)ccc1C",
    "answer.label": "No"
  },
  {
    "molecule": "Cc1nn(C)c(Oc2ccccc2)c1/C=N/OCc1ccc(C(=O)OC(C)(C)C)cc1",
    "answer.label": "Yes"
  },
  {
    "molecule": "O=[N+]([O-])c1ccc2[nH]ncc2c1",
    "answer.label": "No"
  },
  {
    "molecule": "C#CCN(C)CCCOc1ccc(Cl)cc1Cl",
    "answer.label": "No"
  },
  {
    "molecule": "C/C=C/C(=O)CC",
    "answer.label": "No"
  },
  {
    "molecule": "CCCCC/C=C\\C/C=C\\CCCCCCCC(=O)NC(C)c1ccccc1 (stereo unspecified)",
    "answer.label": "No"
  },
  {
    "molecule": "C=CCOc1ccccc1OCC(O)CNC(C)C (stereo unspecified)",
    "answer.label": "No"
  }
]

Please examine the following record next.
Give the logged outcome of this assay for the following molecule: `CCCOC(C(=O)OC1CCN(C)CC1)(c1ccccc1)c1ccccc1` No

----------
protocol: qHTS assay to identify small molecule agonists of the RXR signaling pathway - cell viability counter screen (AID 1159529);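 note: HEK 293T cells carrying an RXR-alpha UAS beta-lactamase reporter; % is set by controls: 0 for no effect and ±100 for the full control effect; nearly all actives have a fitted effect of over 50% in size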
run.conditions: RXR-alpha-bla HEK293T viability, CellTiter-Glo, 16 h; series mostly up to 76.8 µM
Results filed as inconclusive are left out. Active and inactive are the calls of the source. The call rests on the fitted dose curve; in most records, active means well fitted cell-killing curve with a large enough effect in the repeat runs; inconclusive means weak or mixed curves, or effect the other way; inactive means no such curve, though single readings can be large or run the other way.
Please reply with one of these outcomes: active, inactive

Give the logged outcome of this assay for the following compound: `CNC(=O)CN(CCN(CCN(CC(=O)[O-])CC(=O)NC)CC(=O)[O-])CC(=O)[O-].O.[Gd+3]` inactive

Next compound up: `CCOC(=O)C(=O)CCc1ccccc1` inactive

Next compound up: `CCOc1ccc(N=Nc2ccc(/C=C/c3ccc(N=Nc4ccc(OCC)cc4)cc3S(=O)(=O)O)c(S(=O)(=O)O)c2)cc1` inactive

Next compound up: `NC(=O)C(c1ccccc1)(c1ccccc1)[C@@H]1CCN(CCc2ccc3c(c2)CCO3)C1` inactive

Next compound up: `CCOc1ccc(O)cc1` inactive

----------
assay.target: Luciferin 4-monooxygenase (Photinus pyralis) (UniProt P08659)
Sequence (P08659 whole entry, looked up): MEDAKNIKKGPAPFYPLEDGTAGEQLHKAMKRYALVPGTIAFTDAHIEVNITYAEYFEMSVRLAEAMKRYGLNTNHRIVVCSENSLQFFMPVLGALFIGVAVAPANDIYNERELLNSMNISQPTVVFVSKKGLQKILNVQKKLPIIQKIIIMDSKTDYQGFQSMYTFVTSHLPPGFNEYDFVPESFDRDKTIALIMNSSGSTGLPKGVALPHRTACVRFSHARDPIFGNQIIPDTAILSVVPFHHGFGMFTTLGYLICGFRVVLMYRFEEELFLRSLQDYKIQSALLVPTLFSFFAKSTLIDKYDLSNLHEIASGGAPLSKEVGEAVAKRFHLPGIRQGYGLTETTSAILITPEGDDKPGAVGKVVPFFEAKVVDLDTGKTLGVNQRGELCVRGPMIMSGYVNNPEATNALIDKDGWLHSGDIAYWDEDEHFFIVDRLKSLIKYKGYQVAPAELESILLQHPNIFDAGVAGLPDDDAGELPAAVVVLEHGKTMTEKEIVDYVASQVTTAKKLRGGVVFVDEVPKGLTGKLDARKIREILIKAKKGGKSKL
protocol: qHTS assay to identify small molecule inhibitors of firefly luciferase (AID 1224835); note: % is set by controls: 0 for no effect and ±100 for the full control effect; nearly all actives have a fitted effect of over 25% in size
run.conditions: purified P. pyralis luciferase, luminescence inhibition; series mostly up to 115 µM
Inconclusive results are not listed. The source made the active and inactive calls. Calls come from the whole dose curve; as a rule, active = well fitted inhibition curve with a large enough effect in the repeat runs; inconclusive = weak or mixed curves; inactive = flat fitted curve, though single readings scatter.
measure: activity change, negative = inhibition

Examples from the recorded data:
[
  {
    "compound": "CCOC(=O)C(=O)CCc1ccccc1",
    "activity change, negative = inhibition": "inactive"
  },
  {
    "compound": "CN(C)CCN(Cc1ccc(Cl)cc1)c1ccccn1",
    "activity change, negative = inhibition": "inactive"
  },
  {
    "compound": "Cc1ncc(CO)c(C=O)c1O",
    "activity change, negative = inhibition": "inactive"
  },
  {
    "compound": "CC(=O)NO",
    "activity change, negative = inhibition": "inactive"
  },
  {
    "compound": "COCC(C)OC(C)=O (centres undefined)",
    "activity change, negative = inhibition": "inactive"
  },
  {
    "compound": "Cc1ccccc1S(=O)(=O)O",
    "activity change, negative = inhibition": "inactive"
  }
]

Value lookup for activity change, negative = inhibition; key = `CCCCCCCCCCCCCCCCOS(=O)(=O)O` inactive

Next compound up: `COS(=O)(=O)C(F)(F)F` inactive

Next compound up: `CCCCOC(=O)CCCCCCCC(=O)OCCCC` inactive

Next compound up: `C/C=C/C(=O)CC` 3.1% [at 23.6 µM] (inactive)

Next compound up: `Cn1c(=O)cc(Oc2ccc(F)cc2F)c2cnc(NCC(C)(C)O)nc21` inactive

Next compound up: `C=C1[C@H]2CC[C@@H]3[C@H]2C(C)(C)CCC[C@]13C` inactive

Next compound up: `C#C[C@]1(O)CC[C@H]2[C@@H]3CCc4cc(OC5CCCC5)ccc4[C@H]3CC[C@@]21C` inactive

Next compound up: `CN1CCC(N(Cc2cccs2)c2ccccc2)CC1` inactive
